B1: KLHDC10 (parent)
chain: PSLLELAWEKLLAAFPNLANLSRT

Variants of: B1
Method summary: protein stability index of a GFP-peptide fusion (GPS, HEK-293T) (PSI 1-6); higher = more stable;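 note: lentivirally expressed fusions sorted by FACS into six bins by GFP to DsRed ratio, PSI derived from sequencing read proportions per bin multiplied by bin number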
Condition summary: c terminus: a fixed tail appended
Please respond with reported protein stability index for every item in the list.
One number for each entry.

Past entries and their recorded results:
{"columns": ["Variant", "protein stability index"],
 "data": [
  ["E5F", 2.06],
  ["L12E", 2.66],
  ["E5Y", 2.47]
]}

Record protein stability index per entry; entries follow.
1. L18P
2. E9Y
3. T24L
4. L21G
5. R23N
6. L18H

**Result**
2.15
1.59
1.85
2.22
2.17
1.84

Hey, can you go through the list below and give me protein stability index for every item?
1. L3H
2. R23E

**Result**
1. 1.75
2. 1.87
